Test: Drug uptake in tumor of C57BL/6J mouse xenografted with mouse B16F0 cells at 3.7 MBq, iv after 5 days by gamma scintigraphic imaging analysis relative to control
Type: ADME, organism-based, Neoplasm
Details: in vivo, 120 h
Listing: Drug uptake of selected molecules

[
  {
    "mol": "CCN(CCNC(=O)c1cnc2cc([125I])ccc2n1)CCOCCOCCOCCOCCOCCOCCOCCF",
    "Drug uptake [% ID/g]": 2.7
  },
  {
    "mol": "CCN(CCNC(=O)c1cnc2cc([125I])ccc2n1)CCOCCOCCOCCF.Cl",
    "Drug uptake [% ID/g]": 5.8
  },
  {
    "mol": "CCN(CCNC(=O)c1cnc2cc([125I])ccc2n1)Cc1cn(CCF)nn1.Cl",
    "Drug uptake [% ID/g]": 8.6
  },
  {
    "mol": "CCN(C/C=C/CF)CCNC(=O)c1cnc2cc([125I])ccc2n1.Cl",
    "Drug uptake [% ID/g]": 5.6
  },
  {
    "mol": "CCN(CCCF)CCNC(=O)c1cnc2cc([125I])ccc2n1",
    "Drug uptake [% ID/g]": 5.4
  },
  {
    "mol": "CCN(CC#CCF)CCNC(=O)c1cnc2cc([125I])ccc2n1.Cl",
    "Drug uptake [% ID/g]": 11.6
  },
  {
    "mol": "CCN(CCF)CCNC(=O)c1cnc2cc([125I])ccc2n1.Cl",
    "Drug uptake [% ID/g]": 8.4
  }
]

====

Test: Drug uptake in tumor of C57BL/6J mouse xenografted with mouse B16F0 cells at 3.7 MBq, iv after 3 hrs by gamma scintigraphic imaging analysis relative to control
Assay type: ADME, organism-based, Neoplasm
Conditions: in vivo

[
  {
    "mol": "CCN(CCNC(=O)c1cnc2cc([125I])ccc2n1)CCOCCOCCOCCOCCOCCOCCOCCF",
    "Drug uptake, % ID/g": 7.8
  },
  {
    "mol": "CCN(CCF)CCNC(=O)c1cnc2cc([125I])ccc2n1.Cl",
    "Drug uptake, % ID/g": 22.5
  },
  {
    "mol": "CCN(CCNC(=O)c1cnc2cc([125I])ccc2n1)Cc1cn(CCF)nn1.Cl",
    "Drug uptake, % ID/g": 14.5
  },
  {
    "mol": "CCN(CCCF)CCNC(=O)c1cnc2cc([125I])ccc2n1",
    "Drug uptake, % ID/g": 13.5
  },
  {
    "mol": "CCN(C/C=C/CF)CCNC(=O)c1cnc2cc([125I])ccc2n1.Cl",
    "Drug uptake, % ID/g": 12.3
  },
  {
    "mol": "CCN(CCNC(=O)c1cnc2cc([125I])ccc2n1)CCOCCOCCOCCF.Cl",
    "Drug uptake, % ID/g": 12.1
  },
  {
    "mol": "CCN(CC#CCF)CCNC(=O)c1cnc2cc([125I])ccc2n1.Cl",
    "Drug uptake, % ID/g": 18.3
  }
]

====

Assay: Drug uptake in tumor of C57BL/6J mouse xenografted with mouse B16F0 cells at 3.7 MBq, iv after 14 days by gamma scintigraphic imaging analysis relative to control
Type: ADME, organism-based, Neoplasm
Conditions: in vivo, 336 h

[
  {
    "mol": "CCN(CCCF)CCNC(=O)c1cnc2cc([125I])ccc2n1",
    "Drug uptake": "0.8 % ID/g"
  },
  {
    "mol": "CCN(CC#CCF)CCNC(=O)c1cnc2cc([125I])ccc2n1.Cl",
    "Drug uptake": "2.2 % ID/g"
  },
  {
    "mol": "CCN(CCNC(=O)c1cnc2cc([125I])ccc2n1)CCOCCOCCOCCOCCOCCOCCOCCF",
    "Drug uptake": "0.3 % ID/g"
  },
  {
    "mol": "CCN(CCNC(=O)c1cnc2cc([125I])ccc2n1)CCOCCOCCOCCF.Cl",
    "Drug uptake": "0.6 % ID/g"
  },
  {
    "mol": "CCN(C/C=C/CF)CCNC(=O)c1cnc2cc([125I])ccc2n1.Cl",
    "Drug uptake": "1.3 % ID/g"
  },
  {
    "mol": "CCN(CCNC(=O)c1cnc2cc([125I])ccc2n1)Cc1cn(CCF)nn1.Cl",
    "Drug uptake": "1.8 % ID/g"
  },
  {
    "mol": "CCN(CCF)CCNC(=O)c1cnc2cc([125I])ccc2n1.Cl",
    "Drug uptake": "0.6 % ID/g"
  }
]

====

Test: Drug uptake in tumor of C57BL/6J mouse xenografted with mouse B16F0 cells at 3.7 MBq, iv after 1 hr by gamma scintigraphic imaging analysis relative to control
Type: ADME, organism-based, Neoplasm
Conditions: in vivo

[
  {
    "mol": "CCN(CC#CCF)CCNC(=O)c1cnc2cc([125I])ccc2n1.Cl",
    "result-units": "% ID/g",
    "Drug uptake": 12.3
  },
  {
    "mol": "CCN(C/C=C/CF)CCNC(=O)c1cnc2cc([125I])ccc2n1.Cl",
    "result-units": "% ID/g",
    "Drug uptake": 10.8
  },
  {
    "mol": "CCN(CCNC(=O)c1cnc2cc([125I])ccc2n1)CCOCCOCCOCCF.Cl",
    "result-units": "% ID/g",
    "Drug uptake": 11.7
  },
  {
    "mol": "CCN(CCNC(=O)c1cnc2cc([125I])ccc2n1)CCOCCOCCOCCOCCOCCOCCOCCF",
    "result-units": "% ID/g",
    "Drug uptake": 6.8
  },
  {
    "mol": "CCN(CCNC(=O)c1cnc2cc([125I])ccc2n1)Cc1cn(CCF)nn1.Cl",
    "result-units": "% ID/g",
    "Drug uptake": 13
  },
  {
    "mol": "CCN(CCF)CCNC(=O)c1cnc2cc([125I])ccc2n1.Cl",
    "result-units": "% ID/g",
    "Drug uptake": 21.4
  },
  {
    "mol": "CCN(CCCF)CCNC(=O)c1cnc2cc([125I])ccc2n1",
    "result-units": "% ID/g",
    "Drug uptake": 10
  }
]

====

Experiment: Drug uptake in tumor of C57BL/6J mouse xenografted with mouse B16F0 cells at 3.7 MBq, iv after 24 hrs by gamma scintigraphic imaging analysis relative to control
Format: ADME, organism-based, Neoplasm
Settings: in vivo
Kind request: treat 20 % ID/g as inclusive, so Drug uptake at 20 % ID/g or higher is condition met, anything lower is condition not met.

[
  {
    "mol": "CCN(CCNC(=O)c1cnc2cc([125I])ccc2n1)Cc1cn(CCF)nn1.Cl",
    "category-label": "condition not met"
  },
  {
    "mol": "CCN(C/C=C/CF)CCNC(=O)c1cnc2cc([125I])ccc2n1.Cl",
    "category-label": "condition not met"
  },
  {
    "mol": "CCN(CCNC(=O)c1cnc2cc([125I])ccc2n1)CCOCCOCCOCCF.Cl",
    "category-label": "condition not met"
  },
  {
    "mol": "CCN(CCF)CCNC(=O)c1cnc2cc([125I])ccc2n1.Cl",
    "category-label": "condition met"
  },
  {
    "mol": "CCN(CCCF)CCNC(=O)c1cnc2cc([125I])ccc2n1",
    "category-label": "condition not met"
  },
  {
    "mol": "CCN(CCNC(=O)c1cnc2cc([125I])ccc2n1)CCOCCOCCOCCOCCOCCOCCOCCF",
    "category-label": "condition not met"
  },
  {
    "mol": "CCN(CC#CCF)CCNC(=O)c1cnc2cc([125I])ccc2n1.Cl",
    "category-label": "condition met"
  }
]

====

Listing: Drug uptake of selected compounds
Test: Drug uptake in tumor of C57BL/6J mouse xenografted with mouse B16F0 cells at 3.7 MBq, iv after 10 days by gamma scintigraphic imaging analysis relative to control
Assay type: ADME, organism-based, Neoplasm
Conditions: in vivo, 240 h

[
  {
    "mol": "CCN(CCNC(=O)c1cnc2cc([125I])ccc2n1)Cc1cn(CCF)nn1.Cl",
    "Drug uptake [% ID/g]": 3.7
  },
  {
    "mol": "CCN(C/C=C/CF)CCNC(=O)c1cnc2cc([125I])ccc2n1.Cl",
    "Drug uptake [% ID/g]": 1.9
  },
  {
    "mol": "CCN(CC#CCF)CCNC(=O)c1cnc2cc([125I])ccc2n1.Cl",
    "Drug uptake [% ID/g]": 4.2
  },
  {
    "mol": "CCN(CCNC(=O)c1cnc2cc([125I])ccc2n1)CCOCCOCCOCCOCCOCCOCCOCCF",
    "Drug uptake [% ID/g]": 0.8
  },
  {
    "mol": "CCN(CCCF)CCNC(=O)c1cnc2cc([125I])ccc2n1",
    "Drug uptake [% ID/g]": 1.4
  },
  {
    "mol": "CCN(CCF)CCNC(=O)c1cnc2cc([125I])ccc2n1.Cl",
    "Drug uptake [% ID/g]": 1.6
  },
  {
    "mol": "CCN(CCNC(=O)c1cnc2cc([125I])ccc2n1)CCOCCOCCOCCF.Cl",
    "Drug uptake [% ID/g]": 1.3
  }
]
